Source listed as paper PMC6201732.

Would you mind telling me the reported stoichiometry N of each entry?
system-name: the molecule itself
experiment-notes: SEC-MALS

// stoichiometry N lookup, key: Chlamydia trachomatis Serovar E native major outer membrane protein (nMOMP), from HeLa suspension cells (natural protein) LPVGNPAEPSLMIDGILWEGFGGDPCDPCTTWCDAISMRMGYYGDFVFDRVLKTDVNKEFQMGDKPTSTTGNATAPTTLTARENPAYGRHMQDAEMFTNAACMALNIWDRFDVFCTLGASSGYLKGNSASFNLVGLFGDNENQSTVKTNSVPNMSLDQSVVELYTDTAFSWSVGARAALWECGCATLGASFQYAQSKPKVEELNVLCNAAEFTINKPKGYVGQEFPLALIAGTDAATGTKDASIDYHEWQASLALSYRLNMFTPYIGVKWSRASFDADTIRIAQPKSATAIFDTTTLNPTIAGAGDVKASAEGQLGDTMQIVSLQLNKMKSRKSCGIAVGTTIVDADKYAVTVETRLIDERAAHVNAQFRF
2.3

Okay, and Chlamydia trachomatis Serovar F native major outer membrane protein (nMOMP), from adherent HeLa 229 cells (natural protein) LPVGNPAEPSLMIDGILWEGFGGDPCDPCTTWCDAISMRMGYYGDFVFDRVLKTDVNKEFEMGEALAGASGNTTSTLSKLVERTNPAYGKHMQDAEMFTNAACMTLNIWDRFDVFCTLGATSGYLKGNSASFNLVGLFGDGVNATKPAADSIPNVQLNQSVVELYTDTTFAWSVGARAALWECGCATLGASFQYAQSKPKIEELNVLCNAAEFTINKPKGYVGKEFPLDLTAGTDAATGTKDASIDYHEWQASLSLSYRLNMFTPYIGVKWSRASFDSDTIRIAQPRLVTPVVDITTLNPTIAGCGSVAGANTEGQISDTMQIVSLQLNKMKSRKSCGIAVGTTIVDADKYAVTVETRLIDERAAHVNAQFRF ?
2.85

Okay, and Chlamydia trachomatis Serovar E native major outer membrane protein (nMOMP), from adherent HeLa 229 cells (natural protein) LPVGNPAEPSLMIDGILWEGFGGDPCDPCTTWCDAISMRMGYYGDFVFDRVLKTDVNKEFQMGDKPTSTTGNATAPTTLTARENPAYGRHMQDAEMFTNAACMALNIWDRFDVFCTLGASSGYLKGNSASFNLVGLFGDNENQSTVKTNSVPNMSLDQSVVELYTDTAFSWSVGARAALWECGCATLGASFQYAQSKPKVEELNVLCNAAEFTINKPKGYVGQEFPLALIAGTDAATGTKDASIDYHEWQASLALSYRLNMFTPYIGVKWSRASFDADTIRIAQPKSATAIFDTTTLNPTIAGAGDVKASAEGQLGDTMQIVSLQLNKMKSRKSCGIAVGTTIVDADKYAVTVETRLIDERAAHVNAQFRF ?
2.52
